Tested on: VDR:RXRa (NR concentration 270 nM, RXRa partner concentration 90 nM)
assay-name: PBM binding z-score (relative to random genomic background probes); higher = stronger binding; sequences stand for … in GC…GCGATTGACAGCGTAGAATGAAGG
Parameter PBM binding z-score: see the listing below.
Answer with the value's number alone.

> print(dat)
                        item.sequence  observed
1  CGAACTAGGTCTAAGGACAGTGAAAGGCGACGTA    -0.556
2  TAGCCTAGGTCATGCGGGACAGTATAGTGTCGGC      3.48
3  CCTTACGGGTTACTCCAGGTTATAGCATCGGAGT      1.39

## Task Hi! What's the reported PBM binding z-score for "CCTTACGGGTCACTCCAGGTCATAGCATCGGAGT" on VDR:RXRa (NR concentration 270 nM, RXRa partner concentration 90 nM)?
## Result 5.95

## Task Hi! What's the reported PBM binding z-score for "CGTCCGAGGTCATAGGAGGTCAGTGAAGACAGAT" on VDR:RXRa (NR concentration 270 nM, RXRa partner concentration 90 nM)?
## Result 7.1

## Task Hi! What's the reported PBM binding z-score for "CGAACTAGGTCGCCAGGACAGTGAAGAGGTTGGA" on VDR:RXRa (NR concentration 270 nM, RXRa partner concentration 90 nM)?
## Result -0.0336

## Task Hi! What's the reported PBM binding z-score for "CAAACCAGGTCAAGAGGTCAAAGTCCGCTTCCCG" on VDR:RXRa (NR concentration 270 nM, RXRa partner concentration 90 nM)?
## Result 6.45

## Task Hi! What's the reported PBM binding z-score for "CAAACTAGGTCAAGGTCTAAGTCGGTTTGTGCCA" on VDR:RXRa (NR concentration 270 nM, RXRa partner concentration 90 nM)?
## Result 1.95

###

Parameter PBM binding z-score: see the listing below.
Test system: LXRb:RXRa (NR concentration 270 nM, RXRa partner concentration 90 nM)
assay-name: PBM binding z-score (relative to random genomic background probes); higher = stronger binding; sequences stand for … in GC…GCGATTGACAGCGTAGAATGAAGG
Answer with the value's number alone.

Worked examples, 3 sequences total:
> print(dat)
                        item.sequence  observed
1  CCTACTGGACCAAGGTCATTGATCAGTCAAAGCA      3.46
2  CCTGCGAGGTCATGGTCAGCTAATCTACAGTATG       4.6
3  ACTCGGTGGACAAAGGTCAGAGCTACGCCAGTGA      2.99

## Task Data request, read-out PBM binding z-score, for "TAGCCTAGGGCATTCAGGGGCCAGTATAGAAAGC"
## Result -0.231

## Task Data request, read-out PBM binding z-score, for "ATCGAAAGGTCGACGAGGTGAGTAAACACCGTTT"
## Result 2.87

## Task Data request, read-out PBM binding z-score, for "CCTACTGGGCCACGAAAGGCCATTGATTCAGTGA"
## Result -0.37

## Task Data request, read-out PBM binding z-score, for "CCTTACGGGTAACGAGGTTATAGCACGACGAGCG"
## Result 0.414

## Task Data request, read-out PBM binding z-score, for "CGTCCAAGGTCATAGAGGTCAGTGAATGCCGAGT"
## Result 5.69
